TESTED_SYSTEM: Biotinylated recombinant human CD3εδ (Acro Biosystems, CDD-H82W6) (human) (UniProt P07766)
Sequence (P07766 23-126, stated change not applied, chain 1 of 2): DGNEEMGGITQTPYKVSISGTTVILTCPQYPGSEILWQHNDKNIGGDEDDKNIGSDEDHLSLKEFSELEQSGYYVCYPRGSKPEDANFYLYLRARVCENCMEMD
Sequence (P04234 22-105, stated change not applied, chain 2 of 2, further chain): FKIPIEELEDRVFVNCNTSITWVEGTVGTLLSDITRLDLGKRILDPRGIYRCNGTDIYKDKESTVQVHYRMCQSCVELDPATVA
TEST_DESCRIPTION: Octet BLI, biotinylated CD3εδ on streptavidin sensors, 1:1 model
pKd: −log10 of the molar value.
Short version: pKd at least 6 is True, less is False.

BINDER	QUALITATIVE_LABEL
EGFR-CD3 DuetMab with anti-CD3 variant AZ Vκ 26 + AZ VH R82 (bispecific antibody, part only; not given: anti-EGFR arm, constant regions, V domains shown, not shown: another chain or arm of the molecule; a dimerising Fc or GST; small tags and cut ends) VH: EVQLVESGGALVKPGGSLRLSCAASGFTFTRAWMHWVRQAPGKQLEWVAQIKDRSQTYATYYAESVKGRFTISRDDSKNTLYLQMNSLKTEDTAVYYCRGVYYANTPFDYWGQGTLVTVSS VL: DIVMTQSPLSLPVTPGEPASISCRSSQSLVHNTGNTYLSWYLQKPGQSPQSLIYKVSNRASGVPDRFSGSGSGTDFTLKISRVEAEDVGVYYCGQGTQAPFSFGSGTKVEIK	True
EGFR-CD3 DuetMab with anti-CD3 variant AZ Vκ 17 + AZ VH SN82 (bispecific antibody, part only; not given: anti-EGFR arm, constant regions, V domains shown, not shown: another chain or arm of the molecule; a dimerising Fc or GST; small tags and cut ends) VH: EVQLVESGGALVKPGGSLRLSCAASGFTFSNAWMHWVRQAPGKQLEWVAQIKDRSQTYATYYAESVKGRFTISRDDSKNTLYLQMNSLKTEDTAVYYCRGVYYANTPFDYWGQGTLVTVSS VL: DIVMTQSPLSLPVTPGEPASISCRSSQSLVHNTGNTYLSWYLQKPGQSPQSLIYKVSNRASGVPDRFSGSGSGTDFTLKISRVEAEDVGVYYCGQGTQAPFTFGSGTKVEIK	False
EGFR-CD3 DuetMab with anti-CD3 variant AZ Vκ 29 + AZ VH R82 (bispecific antibody, part only; not given: anti-EGFR arm, constant regions, V domains shown, not shown: another chain or arm of the molecule; a dimerising Fc or GST; small tags and cut ends) VH: EVQLVESGGALVKPGGSLRLSCAASGFTFTRAWMHWVRQAPGKQLEWVAQIKDRSQTYATYYAESVKGRFTISRDDSKNTLYLQMNSLKTEDTAVYYCRGVYYANTPFDYWGQGTLVTVSS VL: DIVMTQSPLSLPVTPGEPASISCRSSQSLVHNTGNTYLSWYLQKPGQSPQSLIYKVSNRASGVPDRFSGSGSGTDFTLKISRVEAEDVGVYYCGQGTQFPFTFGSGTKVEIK	True

Next up:
QUERY: hey, is pKd for this one >= 6? EGFR-CD3 DuetMab with the parental anti-CD3 arm (bispecific antibody, part only; not given: anti-EGFR arm, constant regions, V domains shown, not shown: another chain or arm of the molecule; a dimerising Fc or GST; small tags and cut ends) VH: QVQLVESGGGVVQPGRSLRLSCAASGFTFTKAWMHWVRQAPGKQLEWVAQIKDKSNSYATYYADSVKGRFTISRDDSKNTLYLQMNSLRAEDTAVYYCRGVYYALSPFDYWGQGTLVTVSS VL: DIVMTQTPLSLSVTPGQPASISCKSSQSLVHNNANTYLSWYLQKPGQSPQSLIYKVSNRFSGVPDRFSGSGSGTDFTLKISRVEAEDVGVYYCGQGTQYPFTFGSGTKVEIK
RESULT: True

Data origin, for the record: patent US20250019438A1
